The values you see were collected from paper PMC314469.

test system: Myo5 SH3 domain; test: SPOT analysis of cellulose-bound peptides (WISE), Myo5 SH3 domain (Dataset S4); assay type: binding, Saccharomyces cerevisiae; settings: SPOT analysis of membrane-bound peptides, Myo5 SH3 domain; normalized value (see methods)
In this section, each of the sequences is paired with its reported The normalized value in BLU units.
Just the number in BLU, nothing appended.

Please review the following examples before continuing.
Inquiry: Give recorded The normalized value in BLU units. QLQEKLSPDLPDEE
Reply text: 216.1

Inquiry: # return recorded The normalized value in BLU units for entry LKKQKAIPSSPCGM
Reply text: 306.9

Inquiry: For the sequence APPPKEEPAAPTST , report The normalized value in BLU units.
Reply text: 116.7

Inquiry: Supply recorded The normalized value in BLU units for SKNWKLPPRLPHRA here.
Reply text: 5572.0

Inquiry: Output measured The normalized value in BLU units for this item: KYCFKLVPPQPGSK
Reply text: 218.8

Inquiry: Please list The normalized value in BLU units recorded for the sequence SLIPKIEPAEPTYS
Reply text: 85.4

Inquiry: Kindly indicate its recorded The normalized value in BLU units. Item: YGSEKGSPAGPSAV
Reply text: 50.3

Inquiry: Return reported The normalized value in BLU units. Input sequence: VKRPRLNPFLPRDE
Reply text: 1186.3

Inquiry: Identify measured The normalized value in BLU units associated with DIKTRSVPKIPSIE
Reply text: 102.3

Inquiry: Kindly indicate its recorded The normalized value in BLU units. Item: IDIPRTNPHIPLYQ
Reply text: 139.2

Further cases:
Inquiry: Give reported The normalized value in BLU units value for TSWARDNPSKPDIA
Reply text: 81.6

Inquiry: Consider the sequence LNLSKDAPVPPAPE and give its recorded The normalized value in BLU units.
Reply text: 161.0

Inquiry: Supply recorded The normalized value in BLU units for DDNVRPSPISPSIN here.
Reply text: 153.4

Inquiry: Check the records and state The normalized value in BLU units for KVSSKYDPDNPNKD
Reply text: 434.5

Inquiry: Assign The normalized value in BLU units to the following record: ILEGKFEPVIPREW
Reply text: 93.2

Inquiry: Query The normalized value in BLU units for CRHLKLVPSTPMDI
Reply text: 361.8

Inquiry: For the sequence HELVKSDPHFPYGT , report The normalized value in BLU units.
Reply text: 229.2

Inquiry: Given the sequence PQQNRPLPQLPNRN , write its reported The normalized value in BLU units.
Reply text: 186.1

Inquiry: Recall and state the measured The normalized value in BLU units for FNGDRLVPTLPTVS .
Reply text: 160.6

Inquiry: Give the reported The normalized value in BLU units for this sequence. RRRTRLRPPTPLSQ
Reply text: 1508.6

====

test system: Myo5 SH3 domain; experiment: SPOT analysis of cellulose-bound peptides (WISE), Myo5 SH3 domain (Dataset S4); format: binding, Saccharomyces cerevisiae; details: SPOT analysis of cellulose-bound 14-mer yeast proteome peptides, Myo5 SH3 domain; normalized value; mean where the peptide was synthesized more than once
Would you please tag the item met when its The normalized value in BLU units is 300 BLU or above, and not met when it is below?

Inquiry: State whether the measured The normalized value in BLU units reaches 300 BLU, counting equality as reaching it, for FFFFHLSPSIPFWF
Reply text: met

Inquiry: Check this sequence for The normalized value in BLU units at or above 300 BLU: IMDAKFHPFKPQLF
Reply text: not met

Inquiry: Tell me whether The normalized value in BLU units is at least 300 BLU here: LALLMTDPDAPSRT
Reply text: not met

Inquiry: Is The normalized value in BLU units at least 300 BLU? Consider EPEPLMSPVPPSSA
Reply text: not met

Inquiry: Record GEYDLIMPIYPYRL ; criterion: The normalized value in BLU units no lower than 300 BLU. Met?
Reply text: not met

Inquiry: Form field: The normalized value in BLU units at least 300 BLU? Entry: GARFLPAPHRPEKY
Reply text: not met

Inquiry: Test whether the sequence TPYQLLSPILPVLL records The normalized value in BLU units of 300 BLU or higher.
Reply text: not met

Inquiry: Hello, I need to know if KLDPLGEPFDPNKH has measured The normalized value in BLU units not below 300 BLU. Thanks!
Reply text: not met

Inquiry: Textbook exercise: given the entry WETWLYKPGMPPRP , state whether its The normalized value in BLU units is greater than or equal to 300 BLU.
Reply text: not met

Inquiry: Could you please find out whether VFKFLFHPVTPSHF has The normalized value in BLU units that meets 300 BLU or exceeds it?
Reply text: met

Inquiry: For this sequence, is measured The normalized value in BLU units 300 BLU or higher? EFDEKLPPKKPAGP
Reply text: not met

Inquiry: Form field: The normalized value in BLU units at least 300 BLU? Entry: HEYNLALPKFPILF
Reply text: not met

Inquiry: Check the entry IGKSKSAPPIPEDT : does The normalized value in BLU units equal or exceed 300 BLU?
Reply text: not met

Inquiry: Does SRSKRSKPLPPQLL have a reported The normalized value in BLU units of at least 300 BLU?
Reply text: met

Inquiry: Check this sequence for The normalized value in BLU units at or above 300 BLU: EAFKLPKPWSPNSH
Reply text: not met

Inquiry: Does The normalized value in BLU units meet or surpass 300 BLU for YENCHSLPLDPQSP ?
Reply text: not met

Inquiry: Does the reported The normalized value in BLU units for TEDGFVIPALPAAV fall at or above the 300 BLU mark?
Reply text: not met

Inquiry: Determine whether measured The normalized value in BLU units meets or exceeds 300 BLU for GLIGMNDPPRPNVK
Reply text: not met

====

system: Myo5 SH3 domain; experiment: SPOT analysis of cellulose-bound peptides (WISE), Myo5 SH3 domain (Dataset S4); type: binding, Saccharomyces cerevisiae; conditions: SPOT analysis of cellulose-bound peptides probed with Myo5 SH3 domain; normalized value
This section presents sequences with their documented The normalized value in BLU units (SPOT analysis, Myo5 SH3) values.
Give the value in BLU but do not write BLU after it.

Inquiry: Provide one value: measured The normalized value in BLU units (SPOT analysis, Myo5 SH3) of TFSIYSIPSKPGEC
Reply text: 226.8

Inquiry: For the sequence FPFYLSFPFCPSFP , give its reported The normalized value in BLU units (SPOT analysis, Myo5 SH3).
Reply text: 759.9

Inquiry: Indicate its recorded The normalized value in BLU units (SPOT analysis, Myo5 SH3); the sequence in question is DPSLYQIPEPPRGG
Reply text: 98.8

Inquiry: State, in one line, measured The normalized value in BLU units (SPOT analysis, Myo5 SH3) of EPIAHLFPPGPKNP
Reply text: 356.3

Inquiry: Identify the reported The normalized value in BLU units (SPOT analysis, Myo5 SH3) for the following entry. KWKSLFPPFFPCDI
Reply text: 241.7

Inquiry: Return the recorded The normalized value in BLU units (SPOT analysis, Myo5 SH3) value; entry: VARPLSVPGSPRDL
Reply text: 186.0

Inquiry: For the sequence ILPVLNIPLPPQEK , give its reported The normalized value in BLU units (SPOT analysis, Myo5 SH3).
Reply text: 21.6

Inquiry: For the sequence YLNNLAEPLIPLSL , give its reported The normalized value in BLU units (SPOT analysis, Myo5 SH3).
Reply text: 222.0

New cases:
Inquiry: Provide The normalized value in BLU units (SPOT analysis, Myo5 SH3) value for the following sequence: PEVKHFCPSTPIML
Reply text: 93.7

Inquiry: Give recorded The normalized value in BLU units (SPOT analysis, Myo5 SH3). DLKEFNGPEPPIKR
Reply text: 125.6

====

tested on: Myo5 SH3 domain; assay: SPOT analysis of cellulose-bound peptides (WISE), Myo5 SH3 domain (Dataset S4); assay type: binding, Saccharomyces cerevisiae; settings: SPOT analysis of membrane-bound peptides, Myo5 SH3 domain; normalized value (see methods)
Entries annotated with measured The normalized value in BLU units
Return type: number; implicit unit BLU.

Consider the reported The normalized value in BLU units for these sequences:
Inquiry: # return recorded The normalized value in BLU units for input TVCDRLIPTSPQKT
Reply text: 127.7

Inquiry: Tell me measured The normalized value in BLU units for EFTTREGPHQPIGN please.
Reply text: 79.8

Inquiry: Indicate the recorded The normalized value in BLU units value for this sequence: KLKIKILPEQPQLE
Reply text: 261.3

Inquiry: Provide only the value of recorded The normalized value in BLU units for QFALKNTPITPGSC
Reply text: 111.3

---
Inquiry: Given WFILKLFPHEPIEG , respond with its The normalized value in BLU units.
Reply text: 1272.7

Inquiry: Name the recorded The normalized value in BLU units of the item LDKGKHVPSKPVSN in your answer.
Reply text: 200.9

Inquiry: State its The normalized value in BLU units: NAPPRIFPKAPIYG
Reply text: 168.1

Inquiry: Specify measured The normalized value in BLU units for LKDPKSFPPPPLKP .
Reply text: 252.9

Inquiry: Give the value of The normalized value in BLU units reported for the following: AGPRKYIPRAPAQG
Reply text: 194.7

Inquiry: Consider the sequence NVLLKAKPNDPAAT and give its recorded The normalized value in BLU units.
Reply text: 155.5
